- Tested on: SK-OV-3 ovarian
- measurementProtocol: NCI tumour cell line growth inhibition, 48 h
measurementType: TGI (µM)
A number alone suffices; assume µM.

## Task Hello, I am looking for reported TGI with SK-OV-3 ovarian for `O=C(COc1cccc(/C=C2\COc3ccc(Cl)cc3C2=O)c1)c1ccc(Cl)cc1` . Could you help?
## Result 45.6

## Task Hello, I am looking for reported TGI with SK-OV-3 ovarian for COC1=CC(=O)c2c(O)c3c(c(O)c2C1=O)C=C(C)OC3O (stereo unspecified) . Could you help?
## Result 23.7

## Task Hello, I am looking for reported TGI with SK-OV-3 ovarian for CCOC(=O)C1(C/C=C\CBr)CCCCCCCCCCC1=O (stereo unspecified) . Could you help?
## Result 31.2

## Task Hello, I am looking for reported TGI with SK-OV-3 ovarian for `CC(C)/C(Cl)=N\OC(=O)Nc1ccc(F)cc1F` . Could you help?
## Result 30.8

====

- Test system: KM20L2 colon
- measurementProtocol: NCI tumour cell line growth inhibition, 48 h
Field: TGI. Provide a value for each of the compounds that follow.
A number alone suffices; assume µM.

## Task Requested read-out: TGI. Entry: C/C=C/C=C/CCCCCCCCCCCCCC1(OC)C=CC(CC(=O)OC)OO1 (stereo not given)
## Result 3.51

## Task Requested read-out: TGI. Entry: COC1=CC(=O)c2c(O)c3c(c(O)c2C1=O)C=C(C)OC3O (stereo not given)
## Result 10.4

====

Field: GI50. Provide a value for each of the compounds that follow.
- Tested on: NCI-H522 lung
- measurementProtocol: NCI tumour cell line growth inhibition, 48 h

## Task Requested read-out: GI50. Entry: CCCCN(CCCC)c1ccc(C(=NC(C)CCCN(CC)CC)c2ccc(N(C)C)cc2)cc1 (stereo not given)
## Result 706 nM

## Task Requested read-out: GI50. Entry: CCCCNC(=O)NS(=O)(=O)c1ccc(N2N=C(c3cc(C)ccc3C)CC2c2cc(OC)c(OC)c(OC)c2)cc1 (stereo not given)
## Result 2390 nM

## Task Requested read-out: GI50. Entry: COc1ccc2c(c1)C(C)Cc1c(Cl)nc(C)nc1N2C (stereo not given)
## Result 763 nM

## Task Requested read-out: GI50. Entry: CCCCCCCOc1c(OC)cc(C2CC(=O)Nc3c2c(C)nn3-c2nc3ccccc3[nH]2)cc1OC (stereo not given)
## Result 2790 nM

## Task Requested read-out: GI50. Entry: C/C=C/C=C/CCCCCCCCCCCCCC1(OC)C=CC(CC(=O)OC)OO1 (stereo not given)
## Result 1580 nM

## Task Requested read-out: GI50. Entry: `CC(C)N1C(NNC(=O)c2cnccn2)=NS(=O)(=O)c2ccccc21`
## Result > 100000 nM

## Task Requested read-out: GI50. Entry: `Nc1n[nH]c2cccc(C#Cc3cccc(C(=O)Nc4cc(CN5CCOCC5)cc(C(F)(F)F)c4)c3)c12`
## Result 3620 nM

## Task Requested read-out: GI50. Entry: `CS(=O)(=O)Nc1ccc(N=Cc2c(O)[nH]c3ccccc23)cc1`
## Result > 25000 nM

## Task Requested read-out: GI50. Entry: `CC(C)c1ccc(Nc2nccc(-c3cnn4ncccc34)n2)cc1`
## Result 564 nM

## Task Requested read-out: GI50. Entry: `Cc1c(Cl)cccc1NC1=C(Cl)C(=O)N(Cc2ccccc2)C1=O`
## Result 17000 nM

====

- System: M14 melanoma
- measurementProtocol: NCI tumour cell line growth inhibition, 48 h
measurementType: TGI (µM)
A number alone suffices; assume µM.

## Task Requested read-out: TGI. Entry: `COc1ccc(C(=O)/C=C/c2cccnc2)cc1OC`
## Result 26.6

## Task Requested read-out: TGI. Entry: `O=C1/C(=C/c2ccccc2)CCC/C1=C\c1ccc(O)c(CN2CCCCC2)c1`
## Result 26.1

## Task Requested read-out: TGI. Entry: `CC(=O)N1N(c2ccc([N+](=O)[O-])cc2)C(=O)C1(C)C`
## Result 23.7

## Task Requested read-out: TGI. Entry: `Nc1cc(N)c2nc(-c3ccccc3)c(NCc3ccc(F)cc3)nc2c1`
## Result 55.9

## Task Requested read-out: TGI. Entry: NC(=S)N/N=C1\c2ccccc2CCC1CCC1(O)CCc2ccccc2C1=O (configuration not stated)
## Result 38

## Task Requested read-out: TGI. Entry: `CCOC(=O)c1nc(Nc2ccc(Cl)cc2)c2ccccc2n1`
## Result 30.6

## Task Requested read-out: TGI. Entry: Nc1nc(N)c2[nH]cnc2n1 (tested in a mixture with another compound)
## Result 36.2

## Task Requested read-out: TGI. Entry: `CC(C)(C#N)c1cc(C(=O)Nc2cc(Nc3ncccc3-c3ncnc4nc[nH]c34)ccc2F)cc(C(F)(F)F)c1`
## Result 0.862

## Task Requested read-out: TGI. Entry: `Cc1ccc2c(C)c3ccc4ccccc4c3c[n+]2c1`
## Result 33.9

====

- Tested on: OVCAR-8 ovarian
- measurementProtocol: NCI tumour cell line growth inhibition, 48 h; in the data active = GI50 below about 0.43 µM; inactive = the rest
Select the correct class. Options are t = active, f = inactive and nothing else.

## Task GET /call?item= COC(=O)C1=C(OC(=O)c2ccc(Cl)cc2)C(C(=O)OC)[C@@]2(O)[C@@H](C(=O)OC)C(c3ccccc3Cl)C[C@@H]1[C@@H]2C(=O)OC (some centres not stated) returns the recorded outcome of this test.
## Result f

## Task GET /call?item= `Nc1c(C(=O)Nc2ccccc2)sc2nc3c(cc12)CN(Cc1ccccc1)CC3` returns the recorded outcome of this test.
## Result f

## Task GET /call?item= `C/C=C/[C@@H]1OC(=O)C2=C[C@@H](O)[C@@H](/C=C/C)O[C@H]21` returns the recorded outcome of this test.
## Result f

## Task GET /call?item= `Cc1c(Cl)cccc1NC1=C(Cl)C(=O)N(Cc2ccccc2)C1=O` returns the recorded outcome of this test.
## Result f

## Task GET /call?item= `COc1ccc(-c2nn(-c3cccc(Cl)c3)cc2-c2cc(-c3ccccc3)nc(N)n2)cc1` returns the recorded outcome of this test.
## Result f

## Task GET /call?item= `CCCOc1nc(SCCC)nc2c1cnn2-c1ccccc1` returns the recorded outcome of this test.
## Result f

## Task GET /call?item= `N.N.NCCCCCCN.O=C([O-])CC(=O)[O-].O=C([O-])CC(=O)[O-].[Pt+4].[Pt+4]` returns the recorded outcome of this test.
## Result f

## Task GET /call?item= COc1ccc2c(c1)C(C)Cc1c(Cl)nc(C)nc1N2C (configuration not stated) returns the recorded outcome of this test.
## Result f

## Task GET /call?item= `COCCNc1cc(NC(=O)N2CCCc3cc(CN4CCN(C)CC4=O)c(C=O)nc32)ncc1C#N` returns the recorded outcome of this test.
## Result f

## Task GET /call?item= `Cn1cc(-c2ccc(-c3cn(C)c4ccc(Cl)cc34)s2)c2cc(Cl)ccc21` returns the recorded outcome of this test.
## Result f

## Task GET /call?item= `CC(C)c1ccc(Nc2nccc(-c3cnn4ncccc34)n2)cc1` returns the recorded outcome of this test.
## Result f

## Task GET /call?item= `COc1cc(C(=O)/C=C/c2cccnc2Nc2ccccc2)cc(OC)c1OC` returns the recorded outcome of this test.
## Result f

## Task GET /call?item= COc1cc(C2C3=C(COC3=O)Nc3cc4c(cc32)CCC4)cc2c1OCO2 (configuration not stated) returns the recorded outcome of this test.
## Result t

## Task GET /call?item= `CSc1ccccc1C#Cc1ccccc1C#CCCCCO` returns the recorded outcome of this test.
## Result f

## Task GET /call?item= `O=C(N/N=C/c1cc([N+](=O)[O-])ccc1O)c1cccc2ccccc12` returns the recorded outcome of this test.
## Result f

## Task GET /call?item= CCCCCCCOc1c(OC)cc(C2CC(=O)Nc3c2c(C)nn3-c2nc3ccccc3[nH]2)cc1OC (configuration not stated) returns the recorded outcome of this test.
## Result f

## Task GET /call?item= `CCNCCNc1cc(C2CCCCC2)c(C#N)c2nc3ccccc3n12` returns the recorded outcome of this test.
## Result f

====

- System: UACC-62 melanoma
- measurementProtocol: NCI tumour cell line growth inhibition, 48 h
Entry class follows TGI: low (below 20 µM), intermediate (20 µM to below 30 µM), high (30 µM or more)

## Task In plain terms, what class is CCCCCC[C@H]1C(=O)O[C@H](C)[C@H](NC(=O)c2cccc(NC=O)c2OC)C(=O)O[C@@H](C)[C@@H]1OC(=O)CC(C)C (tested in a mixture with another compound) ?
## Result high

## Task In plain terms, what class is N#Cc1cc([N+](=O)[O-])ccc1NC(=O)/C(=N/N)C(C(=O)c1ccc(Cl)c(Cl)c1)C1OC(=O)c2ccccc21 (stereo unspecified) ?
## Result high

## Task In plain terms, what class is C=C1CCC2C3(C)COC(c4ccccc4Br)OC3CCC2(C)C1C/C=C1/C(=O)OCC1OC(C)=O (stereo unspecified) ?
## Result low

## Task In plain terms, what class is `CCOC(=O)/C=C(\C(=O)OCC)n1ccc(=O)n(CC(=O)OCC)c1=O` ?
## Result low

## Task In plain terms, what class is `CC(C)(C)OC(=O)N/N=C(/N)Cc1ccccc1` ?
## Result high

## Task In plain terms, what class is Nc1ncnc2c1cnn2Cc1cn(COCC(O)CO)nn1 (stereo unspecified) ?
## Result high

## Task In plain terms, what class is `COc1ccc(-c2nn(-c3cccc(Cl)c3)cc2-c2cc(-c3ccccc3)nc(N)n2)cc1` ?
## Result intermediate

## Task In plain terms, what class is `NNCCc1n[nH]c(=O)n1N` ?
## Result high

## Task In plain terms, what class is Cc1ccc(S(=O)(=O)n2c3c(c4ccccc42)CCN2CCC(Br)C[C@@H]32)cc1 (stereo partly specified) ?
## Result intermediate

## Task In plain terms, what class is `CCOC(=O)Nc1nn(C)c(=NCc2ccccc2)s1` ?
## Result high

## Task In plain terms, what class is `c1ccc(CSc2nnc3c4ccccc4c4ccccc4c3n2)cc1` ?
## Result high

## Task In plain terms, what class is `CCC(/C=C/c1ccccc1)=N\Nc1ccc(Cl)c(Cl)c1` ?
## Result high

## Task In plain terms, what class is `COc1ccc(C(=O)N(C(=S)OCCOc2ccccc2)c2ccccc2)cc1` ?
## Result high

## Task In plain terms, what class is C=C1CCc2occ(C)c2C2C1C1=C(CC(C)C1=O)C1OC12C (stereo unspecified) ?
## Result high

## Task In plain terms, what class is `O=C(OCCBr)c1ccc(Cl)c([N+](=O)[O-])c1` ?
## Result intermediate

## Task In plain terms, what class is `Clc1nc(Cl)c(-c2ccccc2)c(Cl)n1` ?
## Result low

## Task In plain terms, what class is `Nc1ccc(-c2ccc(N)cc2I)c(I)c1` ?
## Result high

## Task In plain terms, what class is Nc1n[nH]c2ccc([C@@H]3Nc4ccc5[nH]ncc5c4[C@H]4C5C=CC(C5)[C@@H]34)cc12 (stereo partly specified) ?
## Result low

## Task In plain terms, what class is `NC(=O)NC(=O)c1cccc(NC(=O)CF)c1` ?
## Result high

## Task In plain terms, what class is `O=C(CN1CCN(c2ccccc2)CC1)N1CCN(c2nnc(-c3ccc(Cl)cc3)c(-c3ccc(Cl)cc3)n2)CC1` ?
## Result high
